# TGT: NKp30 on human NK cells (human) (UniProt O14931)
# Sequence (O14931 19-201): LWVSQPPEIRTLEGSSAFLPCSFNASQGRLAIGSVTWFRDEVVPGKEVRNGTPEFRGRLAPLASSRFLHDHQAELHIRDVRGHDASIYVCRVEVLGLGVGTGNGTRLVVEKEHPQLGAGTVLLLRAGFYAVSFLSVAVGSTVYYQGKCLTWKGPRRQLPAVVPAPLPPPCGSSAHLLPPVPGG
# PROTOCOL: cell-based or functional assay
MEASUREMENT_LABEL: EC50 improvement compared to ΔB7-H6 wt (fold)
Entry rule: numbers only, all in fold.

ΔB7-H6_S2#14-SEED-PGLALA (bispecific antibody, part only; not given: SEED Fc chains and hu225 Fab, part only) chain, part: DLKVEMMAGGTQITPLNDNVTIFCNIFYSQPLNITTMGITWFWKSLTFDKEVKVFEFFGDHQEAFRPGAIVSPWRLKSGDASLRLPGIQLEEAGEYRCEVVVTPYKAQGTVQLEVVASPAS = 5
ΔB7-H6_S3#6-SEED-PGLALA (bispecific antibody, part only; not given: SEED Fc chains and hu225 Fab, part only) chain, part: DLKVEMMAGGTQITPLNDNVTIFCNIFYSQPLNITHMGITWFWKSLTFDKEVKVFEFWGDHQEAFRPGAIVSPWRLKSGDASLRLPGIQLEEAGEYRCEVVVTPYKAQGTVQLEVVASPAS = 21
ΔB7-H6_S3#9-SEED-PGLALA (bispecific antibody, part only; not given: SEED Fc chains and hu225 EGFR Fab, part only) chain, part: DLKVEMMAGGTQITPLNDNVTIFCNIFYSQPLNITHMGITWFWKSLTFDKEVKVFEFFGDHQEAFRPGAIVSPWRLKSGDASLRLPGIQLEEAGEYRCEVVVTPYKAQGTVQLEVVASPAS = 14
ΔB7-H6_S3#11-SEED-PGLALA (bispecific antibody, part only; not given: SEED Fc chains and hu225 Fab, part only) chain, part: DLKVEMMAGGTQITPLNDNVTIFCNIFYSQPLNITLMGITWFWKSLTFDKEVKVFEFWGDHQEAFRPGAIVSPWRLKSGDASLRLPGIQLEEAGEYRCEVIVTPFKAQGTVQLEVVASPAS = 13

Now look at this one.
Data request: Looking for the measured EC50 improvement compared to ΔB7-H6 wt of ΔB7-H6_S3#16-SEED-PGLALA (bispecific antibody, part only; not given: SEED Fc chains and hu225 Fab, part only) chain, part: DLKVEMMAGGTQITPLNDNVTIFCNIFYSQPLNITLMGITWFWKSLTFDKEVKVFEFYGDHQEAFRPGAIVSPWRLKSGDASLRLPGIQLEEAGEYRCEVVVTPYKAQGTVQLEVVASPAS , can you help?
Data returned: 30
